Where do these numbers come from? They come from patent US20160075695A1.

Target: BRD4-2 (Homo sapiens, UniProt O60885)
Construct: made in house; host or cells: Escherichia coli
Test: BRD4-2 Ligand KI assay (TR-FRET, Cy5 labeled probe displacement)
Assay type: binding
Conditions: 0.5 nM BRD4-2, 1.0 nM labeled ligand, 60 minutes at 25° C.; read-out: BRD4-2 Ligand KI (IC50)
attribute measured: pIC50
Answer as the number alone; pIC50 is minus log10 of concentration in mol/L.

Past entries and their recorded results:
compound	experimental system	reading
Cc1noc(C)c1-c1cc(C(O)(c2ccccc2)c2ccccn2)c2nc(C3CC3)[nH]c2c1 (stereo not drawn)	BRD4-2 (Homo sapiens, UniProt O60885)	7.89
Cc1noc(C)c1-c1cc(C(O)(c2ccccn2)c2ccccn2)c2nc(C3CC3)[nH]c2c1	BRD4-2 (Homo sapiens, UniProt O60885)	7.93
Cc1noc(C)c1-c1cc(C(O)(c2nccs2)c2nccs2)c2nc(C3CC3)[nH]c2c1	BRD4-2 (Homo sapiens, UniProt O60885)	7.91

In: Item under review: Cc1noc(C)c1-c1cc(C(O)(c2ncccn2)c2ccc(F)cc2F)c2nc(C3CC3)[nH]c2c1 (stereo not drawn) . Reported pIC50?
Out: 8.25

In: Same thing, different compound: Cc1noc(C)c1-c1cc(C(O)(c2ccccc2)c2cccnc2)c2nc(C3CC3)[nH]c2c1 (stereo not drawn)
Out: 7.87

In: Same thing, different compound: Cc1cccc(C(O)(c2cc(-c3c(C)noc3C)cc3[nH]c(C4CC4)nc23)C2CCCO2)n1 (racemic)
Out: 8.57
